Assay system: Endoribonuclease Dicer (Homo sapiens) (UniProt Q9UPY3)
Sequence (Q9UPY3 whole entry, looked up): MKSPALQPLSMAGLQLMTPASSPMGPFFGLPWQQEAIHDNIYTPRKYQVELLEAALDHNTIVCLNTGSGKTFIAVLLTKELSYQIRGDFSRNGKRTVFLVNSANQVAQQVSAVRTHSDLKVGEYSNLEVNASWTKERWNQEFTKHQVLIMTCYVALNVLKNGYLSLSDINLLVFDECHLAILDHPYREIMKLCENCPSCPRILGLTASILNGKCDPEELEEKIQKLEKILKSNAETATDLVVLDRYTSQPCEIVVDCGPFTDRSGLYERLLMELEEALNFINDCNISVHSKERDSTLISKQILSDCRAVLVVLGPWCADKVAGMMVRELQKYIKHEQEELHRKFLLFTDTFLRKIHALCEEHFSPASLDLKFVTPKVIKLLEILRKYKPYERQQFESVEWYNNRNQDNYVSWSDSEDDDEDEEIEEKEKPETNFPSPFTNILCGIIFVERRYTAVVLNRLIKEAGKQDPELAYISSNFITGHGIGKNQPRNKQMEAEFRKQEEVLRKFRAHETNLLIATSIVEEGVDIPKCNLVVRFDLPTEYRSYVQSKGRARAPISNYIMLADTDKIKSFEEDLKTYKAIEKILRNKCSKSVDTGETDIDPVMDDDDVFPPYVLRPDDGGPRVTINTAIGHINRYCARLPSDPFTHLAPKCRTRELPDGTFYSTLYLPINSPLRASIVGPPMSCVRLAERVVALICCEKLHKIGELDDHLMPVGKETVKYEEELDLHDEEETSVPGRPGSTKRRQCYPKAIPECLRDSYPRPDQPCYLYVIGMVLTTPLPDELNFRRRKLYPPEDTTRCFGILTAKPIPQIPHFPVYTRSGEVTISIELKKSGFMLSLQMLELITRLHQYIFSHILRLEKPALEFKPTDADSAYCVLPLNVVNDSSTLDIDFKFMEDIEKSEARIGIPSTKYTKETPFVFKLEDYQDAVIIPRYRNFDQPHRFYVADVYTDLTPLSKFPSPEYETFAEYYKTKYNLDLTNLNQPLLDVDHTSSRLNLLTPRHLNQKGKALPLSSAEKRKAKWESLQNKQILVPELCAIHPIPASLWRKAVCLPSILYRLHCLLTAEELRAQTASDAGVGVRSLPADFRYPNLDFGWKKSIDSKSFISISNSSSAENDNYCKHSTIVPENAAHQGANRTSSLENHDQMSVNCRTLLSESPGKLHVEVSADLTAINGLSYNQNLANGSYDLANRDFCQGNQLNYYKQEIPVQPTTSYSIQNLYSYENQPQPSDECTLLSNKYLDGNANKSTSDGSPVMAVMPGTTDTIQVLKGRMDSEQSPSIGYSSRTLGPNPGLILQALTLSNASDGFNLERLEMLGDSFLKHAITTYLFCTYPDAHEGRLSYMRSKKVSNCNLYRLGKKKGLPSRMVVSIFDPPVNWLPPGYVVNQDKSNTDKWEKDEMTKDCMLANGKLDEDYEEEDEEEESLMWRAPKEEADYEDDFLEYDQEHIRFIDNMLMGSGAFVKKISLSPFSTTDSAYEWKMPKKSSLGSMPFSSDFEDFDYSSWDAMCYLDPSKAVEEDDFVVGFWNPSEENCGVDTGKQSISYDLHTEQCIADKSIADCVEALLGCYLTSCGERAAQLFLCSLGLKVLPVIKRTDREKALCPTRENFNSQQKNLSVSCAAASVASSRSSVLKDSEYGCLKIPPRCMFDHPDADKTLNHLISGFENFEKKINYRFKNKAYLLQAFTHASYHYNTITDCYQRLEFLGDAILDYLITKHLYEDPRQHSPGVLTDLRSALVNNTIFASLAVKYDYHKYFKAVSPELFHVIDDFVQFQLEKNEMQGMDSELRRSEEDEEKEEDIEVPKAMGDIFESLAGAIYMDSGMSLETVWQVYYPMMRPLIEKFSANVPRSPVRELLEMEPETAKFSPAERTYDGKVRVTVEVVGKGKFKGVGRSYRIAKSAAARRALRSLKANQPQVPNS
Protocol details: Dicer cleavage of pre-miR-21 blockers – biochemical, cat-ELCCA, chemiluminescence, primary screen (AID 1347074);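 note: higher signal means more uncleaved substrate so more Dicer inhibition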
Condition details: cat-ELCCA pre-miR-21 Dicer processing, at 25 µM, stronger effect = higher value
The whole screen tested about 47,000 compounds, of which about 2,800 (6%) were called active. The sample as a whole holds a higher share of actives than the screen did.
Use satisfied when the recorded z-score is no lower than -0.2; use not satisfied when it is lower.

API: above_or_equal(metric=z-score, cutoff=-0.2) for item CC(C)(C)C(=O)Nc1ccncc1C(=O)O
not satisfied

Identify whether the reported z-score of the following compound is -0.2 or greater: Cc1cc(NC(=O)CC(CC(=O)O)c2ccccc2)n(C)n1 (stereo not drawn)
not satisfied

For this compound, is measured z-score -0.2 or higher? COc1cccc(CNC2CS(=O)(=O)CC2O)c1 (stereo not drawn)
satisfied

API: above_or_equal(metric=z-score, cutoff=-0.2) for item Nc1cccc(CCc2nc3ccccc3[nH]2)c1
satisfied

State whether the measured z-score reaches -0.2, counting equality as reaching it, for Clc1ccc(-c2nn3c(-c4ccc(Cl)cc4)nnc3s2)cc1
satisfied

Hi, just wondering whether O=C(CSc1ncnc2c1sc1nc(N3CCOCC3)c3c(c12)CCCC3)N1CCCCC1 shows z-score of -0.2 or higher.
satisfied

Is it the case that Cc1ccc(-n2nnnc2-c2ccc(Cl)c(Cl)c2)c(C)c1 has z-score reaching or exceeding -0.2?
not satisfied

Threshold query (z-score >= -0.2) on CCCNC(=O)NNC(=O)Cn1nnc(N2CCOCC2)n1
satisfied

Data provenance is PubChem BioAssay AID1347074.
